Please respond with reported optical density for every item in the list.
Experimental target: human ACVR2A (human, UniProt P27037 20-135, limits assumed); note: test concentration or dose not given here
Sequence (P27037 20-135 limits assumed): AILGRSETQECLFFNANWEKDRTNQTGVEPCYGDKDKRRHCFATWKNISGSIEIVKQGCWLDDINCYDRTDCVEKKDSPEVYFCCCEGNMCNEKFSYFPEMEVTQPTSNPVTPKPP
Assay procedure: ELISA

// field: optical density; key: 376_B11 (antibody, V domains shown, VH/VL only) VH: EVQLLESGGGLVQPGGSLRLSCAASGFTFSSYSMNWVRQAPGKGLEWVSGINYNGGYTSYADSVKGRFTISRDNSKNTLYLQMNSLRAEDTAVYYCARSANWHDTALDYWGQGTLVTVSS VL: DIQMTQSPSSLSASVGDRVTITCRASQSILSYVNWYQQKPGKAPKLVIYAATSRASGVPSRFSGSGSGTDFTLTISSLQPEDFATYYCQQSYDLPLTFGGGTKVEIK ; value = 3.69 OD

Measured optical density of 373_E06 (antibody, V domains shown, VH/VL only) VH: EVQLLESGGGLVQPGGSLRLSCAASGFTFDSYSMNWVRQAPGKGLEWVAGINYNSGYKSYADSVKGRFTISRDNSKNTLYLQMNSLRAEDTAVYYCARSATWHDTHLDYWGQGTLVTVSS VL: DIQMTQSPSSLSASVGDRVTITCRASQSILRYLNWYQQKPGKAPKLLIYAATSLHSGVPSRFSGSGSGTDFTLTISSLQPEDFATYYCQQSYDNPLTFGGGTKVEIK : 3.71 OD

Reported optical density ( 374_A11 (antibody, V domains shown, VH/VL only) VH: EVQLLESGGGLVQPGGSLRLSCAASGFTFSDYSMNWVRQAPGKGLEWVANINYNSGYKGYADSVKGRFTISRDNSKNTLYLQMNSLRAEDTAVYYCARSATWHDTHLDYWGQGTLVTVSS VL: DIQMTQSPSSLSASVGDRVTITCRASQSILSYVNWYQQKPGKAPKLVIYAATSRASGVPSRFSGSGSGTDFTLTISSLQPEDFATYYCQQSYSSPLTFGGGTKVEIK ) = 3.65 OD
